Cited source for all entries: the FLAb antibody collection (doi:10.7554/elife.23156)

B1: scFv; the commonest letter at each place (parent)
chain 1: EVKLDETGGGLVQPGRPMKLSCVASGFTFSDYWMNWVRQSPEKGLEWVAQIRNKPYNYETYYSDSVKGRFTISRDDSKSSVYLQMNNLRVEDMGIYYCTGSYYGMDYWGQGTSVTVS
chain 2: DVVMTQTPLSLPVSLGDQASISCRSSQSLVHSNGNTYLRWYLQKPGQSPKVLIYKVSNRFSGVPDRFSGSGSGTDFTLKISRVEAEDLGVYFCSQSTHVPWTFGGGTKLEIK

Variants of: B1
Assay: Kd (Tite-Seq)
Conditions: with fluorescein; format: scFv 4-4-20, heavy + light
Let's look at some variants and their measured Kd.

Variant Key	Kd
chain 1 T28S F29Q	0.00638 µM
chain 1 Y103D Y107R	≥ 10 µM
chain 1 Y103N G104T	≥ 10 µM
chain 1 M34P W36L	≥ 10 µM
chain 1 Y102T	0.00894 µM
chain 1 S101I Y103T W108D	≥ 10 µM
chain 1 S30A V37Y	0.0391 µM
chain 1 D31R Y32A	0.0944 µM
chain 1 S101C M105Y Y107D	≥ 10 µM
chain 1 D31I Y32F	≥ 10 µM
chain 1 G100S S101D	≥ 10 µM
chain 1 F29A	0.0221 µM
chain 1 G100W D106C	≥ 10 µM
chain 1 D31F Y32V N35C	≥ 10 µM
chain 1 G100R W108Y	≥ 10 µM
chain 1 D106I W108R	≥ 10 µM
chain 1 S30L W33I	≥ 10 µM
chain 1 T28R D31K	0.00325 µM
chain 1 G100N Y102Q	≥ 10 µM
chain 1 Y107A G109L	≥ 10 µM
chain 1 M105V W108A	≥ 10 µM
chain 1 S101R Y103K	≥ 10 µM
chain 1 Y103N G104Q	≥ 10 µM
chain 1 Y107V W108R	≥ 10 µM
chain 1 D31G Y32L	0.0302 µM
chain 1 G104V W108A	≥ 10 µM
chain 1 S30P D31A Y32H	≥ 10 µM
chain 1 T28W	0.0038 µM
chain 1 G104D Y107D	≥ 10 µM
chain 1 T28E Y32R	0.0318 µM
